Tested on: HOP-62 NSCLC
Assay: NCI tumour cell line growth inhibition, 48 h
outcome measure: GI50

Worked set:
[
  {
    "compound": "O=C(N[C@@H]1CCCc2ccccc21)[C@H](CCC(=O)N1CCN(C2CCCCC2)CC1)N1C(=O)[C@@H](N2C(=O)OC[C@@H]2c2ccccc2)[C@H]1/C=C/c1ccccc1",
    "GI50": "3.87 µM"
  },
  {
    "compound": "COC(=O)c1cc(Nc2ccc(O)c3c2C(=O)c2c([N+](=O)[O-])ccc(O)c2C3=O)cc(C(=O)OC)c1",
    "GI50": "4.04 µM"
  },
  {
    "compound": "CC(C)OP(=O)(CP(=O)(OC(C)C)OC(C)C)OC(C)C.[CH3][Sn]([Br])([Br])[Br]",
    "GI50": "> 100 µM"
  },
  {
    "compound": "CC(=O)[CH-]C(=O)c1ccccc1.CC(=O)[CH-]C(=O)c1ccccc1.[O]=[U+2]=[O]",
    "GI50": "23.8 µM"
  },
  {
    "compound": "COc1cccc(-c2nn(-c3ccccc3)cc2-c2ccnc(NCCNC(=O)Nc3ccc(Cl)c(Cl)c3)c2)c1",
    "GI50": "3.39 µM"
  }
]

Query block: So what's the measured GI50 for this one? CC(C)(C)n1cc(-c2ccnc(NCCNS(=O)(=O)c3ccc(Br)cc3)c2)c(-c2cccc(O)c2)n1
Result block: 1.5 µM

Query block: So what's the measured GI50 for this one? Cc1nn(-c2ccccc2)c2c1C1C(=C(c3ccc(Cl)cc3)N2)C(=O)Nc2ccccc21 (stereo not drawn)
Result block: 9.88 µM

Query block: So what's the measured GI50 for this one? CC(C)OP(=O)(OC(C)C)C(N(C)C)P(=O)(OC(C)C)OC(C)C.[Cl][Sn]([Cl])([Cl])[c]1ccccc1
Result block: 2.08 µM
